Details: in ethyl acetate, 298.15 K
measured.property: solubility (mole fraction)
Numbers only.

Ask | Quick check: solubility (mole fraction) of `Nc1n[nH]c(=S)s1` ?
Reply | 0.00263

* * *

Conditions: in n-propanol, 318.15 K
measured.property: solubility (mole fraction)
Give bare numbers.

Ask | Entry under review: `Nc1n[nH]c(=S)s1` . Reported solubility (mole fraction)?
Reply | 0.00561

* * *

Conditions: in ethyl acetate, 288.15 K
measured.property: solubility (mole fraction)
Numbers only.

Ask | Given the entry `Nc1n[nH]c(=S)s1` , report its measured solubility (mole fraction).
Reply | 0.00222

* * *

Conditions: in isopropanol, 293.15 K
measured.property: solubility (mole fraction)
Answers are plain numbers.

Ask | Entry `Nc1n[nH]c(=S)s1` has what solubility (mole fraction)?
Reply | 0.00302

* * *

Conditions: in n-propanol, 323.15 K
measured.property: solubility (mole fraction)
Answers are plain numbers.

Ask | I'd like to know its solubility (mole fraction). The molecule in question is `Nc1n[nH]c(=S)s1`
Reply | 0.00629

* * *

Details: in sec-butanol, 283.15 K
measured.property: solubility (mole fraction)
Answers are plain numbers.

Ask | # input compound: `Nc1n[nH]c(=S)s1` ; wanted: its solubility (mole fraction)
Reply | 0.00247

* * *

Details: in n-propyl acetate, 318.15 K
measured.property: solubility (mole fraction)
Numbers only.

Ask | Need solubility (mole fraction) of `Nc1n[nH]c(=S)s1` , thanks.
Reply | 0.00295

* * *

Conditions: in cyclohexanone, 293.15 K
measured.property: solubility (mole fraction)

Ask | Which solubility (mole fraction) is reported for this compound? `Nc1n[nH]c(=S)s1`
Reply | 0.036

* * *

Conditions: in n-propyl acetate, 298.15 K
measured.property: solubility (mole fraction)
Answers are plain numbers.

Ask | Given the entry `Nc1n[nH]c(=S)s1` , report its measured solubility (mole fraction).
Reply | 0.00228

* * *

Settings: in acetone, 308.15 K
measured.property: solubility (mole fraction)
Numbers only.

Ask | # solubility (mole fraction) lookup, item `Nc1n[nH]c(=S)s1`
Reply | 0.0135

* * *

Conditions: in cyclohexanone, 298.15 K
measured.property: solubility (mole fraction)
Numbers only.

Ask | Which solubility (mole fraction) is reported for this molecule? `Nc1n[nH]c(=S)s1`
Reply | 0.0378

* * *

Details: in n-butanol, 283.15 K
measured.property: solubility (mole fraction)
Answers are plain numbers.

Ask | # get_value(readout='solubility (mole fraction)', item= `Nc1n[nH]c(=S)s1` )
Reply | 0.00216

* * *

Settings: in methanol, 293.15 K
measured.property: solubility (mole fraction)
One number for each entry.

Ask | Fill blank: measured solubility (mole fraction) of the molecule `Nc1n[nH]c(=S)s1` is ____.
Reply | 0.00553

* * *

Settings: in methanol, 323.15 K
measured.property: solubility (mole fraction)
Give bare numbers.

Ask | May I ask what solubility (mole fraction) has been recorded for `Nc1n[nH]c(=S)s1` ?
Reply | 0.00961

* * *

Conditions: in acetone, 288.15 K
measured.property: solubility (mole fraction)
Give bare numbers.

Ask | Can you share its solubility (mole fraction)? I mean this compound: `Nc1n[nH]c(=S)s1`
Reply | 0.0107

* * *

Conditions: in sec-butanol, 313.15 K
measured.property: solubility (mole fraction)
Answers are plain numbers.

Ask | Fill blank: measured solubility (mole fraction) of the compound `Nc1n[nH]c(=S)s1` is ____.
Reply | 0.00584

* * *

Details: in ethanol, 283.15 K
measured.property: solubility (mole fraction)
Numbers only.

Ask | I'd like to know its solubility (mole fraction). The molecule in question is `Nc1n[nH]c(=S)s1`
Reply | 0.00402

* * *

Details: in n-butyl acetate, 293.15 K
measured.property: solubility (mole fraction)
Give bare numbers.

Ask | Fill blank: measured solubility (mole fraction) of the compound `Nc1n[nH]c(=S)s1` is ____.
Reply | 0.00189

* * *

Details: in isobutanol, 303.15 K
measured.property: solubility (mole fraction)
Answers are plain numbers.

Ask | Which solubility (mole fraction) is reported for this molecule? `Nc1n[nH]c(=S)s1`
Reply | 0.00257

* * *

Conditions: in isobutanol, 323.15 K
measured.property: solubility (mole fraction)
One number for each entry.

Ask | Please report the recorded solubility (mole fraction) for `Nc1n[nH]c(=S)s1` .
Reply | 0.0042

* * *

Settings: in n-butanol, 298.15 K
measured.property: solubility (mole fraction)
Numbers only.

Ask | solubility (mole fraction) for `Nc1n[nH]c(=S)s1` ?
Reply | 0.00327

* * *

Conditions: in isopropanol, 313.15 K
measured.property: solubility (mole fraction)
Answers are plain numbers.

Ask | # input compound: `Nc1n[nH]c(=S)s1` ; wanted: its solubility (mole fraction)
Reply | 0.00501

* * *

Conditions: in methyl acetate, 283.15 K
measured.property: solubility (mole fraction)
Numbers only.

Ask | Can you share its solubility (mole fraction)? I mean this compound: `Nc1n[nH]c(=S)s1`
Reply | 0.0022

* * *

Conditions: in methanol, 303.15 K
measured.property: solubility (mole fraction)
Numbers only.

Ask | # input compound: `Nc1n[nH]c(=S)s1` ; wanted: its solubility (mole fraction)
Reply | 0.00676

* * *

Conditions: in isobutanol, 298.15 K
measured.property: solubility (mole fraction)
Give bare numbers.

Ask | // query solubility (mole fraction) value for entry `Nc1n[nH]c(=S)s1`
Reply | 0.00225

* * *

Conditions: in ethyl acetate, 323.15 K
measured.property: solubility (mole fraction)
Give bare numbers.

Ask | Field request: solubility (mole fraction) | item: `Nc1n[nH]c(=S)s1`
Reply | 0.00374

* * *

Details: in isobutanol, 288.15 K
measured.property: solubility (mole fraction)

Ask | Need solubility (mole fraction), item `Nc1n[nH]c(=S)s1`
Reply | 0.0017

* * *

Conditions: in ethanol, 308.15 K
measured.property: solubility (mole fraction)
One number for each entry.

Ask | # solubility (mole fraction) lookup, item `Nc1n[nH]c(=S)s1`
Reply | 0.00629

* * *

Settings: in n-propyl acetate, 293.15 K
measured.property: solubility (mole fraction)
Numbers only.

Ask | # query: solubility (mole fraction) of entry `Nc1n[nH]c(=S)s1`
Reply | 0.00212

* * *

Conditions: in ethanol, 318.15 K
measured.property: solubility (mole fraction)

Ask | Can you share its solubility (mole fraction)? I mean this molecule: `Nc1n[nH]c(=S)s1`
Reply | 0.00741

* * *

Conditions: in n-propanol, 293.15 K
measured.property: solubility (mole fraction)
Answers are plain numbers.

Ask | For the compound shown here, `Nc1n[nH]c(=S)s1` , give the reported solubility (mole fraction).
Reply | 0.00293

* * *

Details: in n-propanol, 308.15 K
measured.property: solubility (mole fraction)

Ask | Which measured solubility (mole fraction) value corresponds to `Nc1n[nH]c(=S)s1` ?
Reply | 0.0043

* * *

Conditions: in isobutanol, 318.15 K
measured.property: solubility (mole fraction)
Answers are plain numbers.

Ask | Consider the molecule `Nc1n[nH]c(=S)s1` and give its measured solubility (mole fraction).
Reply | 0.00376

* * *

Details: in acetone, 323.15 K
measured.property: solubility (mole fraction)
One number for each entry.

Ask | GET /values?readout=solubility (mole fraction)&item= `Nc1n[nH]c(=S)s1`
Reply | 0.0158

* * *

Details: in ethanol, 293.15 K
measured.property: solubility (mole fraction)

Ask | # lookup: solubility (mole fraction) of `Nc1n[nH]c(=S)s1`
Reply | 0.00486

* * *

Conditions: in isopropanol, 303.15 K
measured.property: solubility (mole fraction)

Ask | What measured solubility (mole fraction) goes with `Nc1n[nH]c(=S)s1` ?
Reply | 0.00397

* * *

Conditions: in n-propyl acetate, 323.15 K
measured.property: solubility (mole fraction)
Give bare numbers.

Ask | Requested read-out: solubility (mole fraction). Entry: `Nc1n[nH]c(=S)s1`
Reply | 0.00316

* * *

Details: in ethanol, 298.15 K
measured.property: solubility (mole fraction)

Ask | Item under review: `Nc1n[nH]c(=S)s1` . Reported solubility (mole fraction)?
Reply | 0.00526

* * *

Conditions: in acetone, 298.15 K
measured.property: solubility (mole fraction)
Numbers only.

Ask | What solubility (mole fraction) value was documented for this molecule, `Nc1n[nH]c(=S)s1` ?
Reply | 0.0121

* * *

Settings: in isopropanol, 318.15 K
measured.property: solubility (mole fraction)
Give bare numbers.

Ask | Name the recorded solubility (mole fraction) for `Nc1n[nH]c(=S)s1` .
Reply | 0.0057

* * *

Conditions: in methanol, 318.15 K
measured.property: solubility (mole fraction)
Give bare numbers.

Ask | Reported solubility (mole fraction), compound `Nc1n[nH]c(=S)s1` : ____
Reply | 0.00882

* * *

Conditions: in acetone, 283.15 K
measured.property: solubility (mole fraction)
Numbers only.

Ask | Look up solubility (mole fraction): `Nc1n[nH]c(=S)s1`
Reply | 0.0101

* * *

Conditions: in isobutanol, 293.15 K
measured.property: solubility (mole fraction)
Answers are plain numbers.

Ask | Entry `Nc1n[nH]c(=S)s1` : reported solubility (mole fraction) = ?
Reply | 0.00197
